Cited source for all entries: the supplement of paper PMC10567573

B1: FAM46C (parent)
chain: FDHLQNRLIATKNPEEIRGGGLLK

- Variants of: B1
- Protocol Details: protein stability index of a GFP-peptide fusion (GPS, HEK-293T) (PSI 1-6); higher = more stable;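 further: lentivirally expressed fusions sorted by FACS into six bins by GFP to DsRed ratio, PSI derived from sequencing read proportions per bin multiplied by bin number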
- Conditions Used: c terminus: a fixed tail appended
Measured protein stability index values are reported for all entries that follow.
Property Label: protein stability index

* P14D | 3.87
* L8F | 3.23
* R7K | 4.19
* G20D | 4.05
* T11P | 3.63
* Q5I | 3.17
* L4F | 3.87
* G20W | 3.16
* K12Q | 3.61
* P14N | 4.12
* E15H | 3.65
* N13W | 3.14
* E16V | 3.61
* E16Y | 3.91
* G20N | 3.74
* E15A | 3.92
* P14Y | 3.2
* T11R | 3.97
* L4W | 3.8
* A10I | 2.71
* Q5M | 2.92
* Q5T | 3.99
* N6M | 3.32
* G19T | 4.01
* K12L | 2.65
* L23F | 3.36
* K24C | 2.28
* E15T | 3.29
* D2Q | 4.32
* K24Y | 1.93
* E15F | 3.06
* I17F | 3.46
* F1V | 4.67
* Q5A | 4.57
* G21E | 3.93
* I17S | 4.35
* G19Y | 3.25
* I9A | 4.86
* D2M | 2.17
* F1G | 3.9
* I9W | 2.16
* L4H | 4.79
* K24W | 1.95
* K12P | 4.24
* G21M | 3.25
* N6S | 3.31
* A10E | 4
* L22A | 4.86
* H3V | 3.87
* Q5V | 3.33
* G21H | 3.94
* R7Y | 2.99
* K24E | 3.79
* N13G | 2.86
* F1I | 3.5
* R7L | 2.94
* P14F | 2.97
* N6E | 3.87
* Q5E | 3.82
* R7M | 3.54
* K12F | 2.59
* I17K | 3.39
* K24F | 2.2
* E15P | 3.13
* I9R | 4.05
* P14G | 4.2
* E16G | 2.93
* I17M | 3.82
* L22R | 3.98
* L23A | 3.81
* E15M | 4.01
* E16A | 3.43
* N13C | 3.15
* L22H | 4.2
* G20S | 3.69
* E15Y | 1.97
* H3L | 3.25
* D2Y | 2.8
* N6Y | 2.95
* N13T | 3.64
* N6I | 2.56
* D2G | 2.82
* D2I | 1.04
* E16R | 3.47
* R7F | 3.82
* N13H | 2.77
* K24V | 2.29
* I17Y | 3.58
* K24G | 3.52
* L4T | 4.27
* P14Q | 3.54
